Tested on: L929
Experiment: In vitro L929 cytotoxicity assay (CTG)
Format: cell-based
Conditions: L929 cells; read-out: Cytotox (CTG) CC50
Reported CC50 values follow for various molecules

Molecule: CC(C)CCC[C@](C)(O)[C@H]1CC[C@H]2[C@@H]3CC=C4C[C@@H](O)CC[C@]4(C)[C@H]3CC[C@@]21C [20a-hydroxy-cholesterol]
CC50: > 12 µM

Molecule: CCC(=O)O[C@]1(C(=O)SCF)[C@H](C)C[C@H]2[C@@H]3C[C@H](F)C4=CC(=O)C=C[C@]4(C)[C@@]3(F)[C@@H](O)C[C@@]21C [Fluticasone propionate]
CC50: > 1 µM

Here is another molecule to look at.
[in] Specify CC50 for `C=C(CC[C@]12O[C@H](C(=O)O)[C@@](O)(C(=O)O)[C@](C(=O)O)(O1)[C@H](OC(=O)/C=C/[C@@H](C)C[C@@H](C)CC)[C@H]2O)[C@@H](OC(C)=O)[C@H](C)Cc1ccccc1` and stop.
[out] > 30 µM
